# target: Tau40 P301L protein (human)
# run.description: cell-based or functional assay
Square brackets hold non-standard residues; d marks the D form. Ends that are not written are not given here.
observable: IC50, Tau40 assay (ThT) (µM)

>>> df
                                      binder  test_value
 0  [dL][dK][dI][dW][dI][dW][dY][dH] [lkiwiwyh]        3.19
 1  [dF][dR][dV][dK][dI][dE][dH][dW] [frvkiehw]        5.25
 2  [dI][dH][dY][dH][dL][dK][dI][dR] [ihyhlkir]         9.7
 3  [dW][dK][dV][dQ][dV][dR][dY][dW] [wkvqvryw]        3.54
 4    [dL][dK][dT][dR][dI][dH][dY] [lktrihy]        12.5
 5         [dL][dK][dV][dR][dW][dW] [lkvrww]        6.48
 6         [dW][dL][dK][dI][dV][dW] [wlkivw]        3.62
 7  [dF][dE][dI][dR][dL][dW][dH][dH] [feirlwhh]        3.38
 8    [dW][dE][dL][dK][dV][dR][dW] [welkvrw]        7.92
 9  [dW][dK][dL][dW][dL][dR][dW][dW] [wklwlrww]        2.94
10  [dL][dK][dI][dR][dI][dE][dY][dH] [lkirieyh]        8.14
11  [dW][dR][dL][dK][dV][dR][dW][dW] [wrlkvrww]        3.23
12    [dW][dR][dL][dR][dI][dH][dA] [wrlriha]        3.23
13  [dL][dK][dI][dR][dI][dE][dH][dY] [lkiriehy]        4.53
14         [dK][dL][dK][dW][dL][dW] [klkwlw]        4.41
15    [dW][dW][dL][dK][dL][dR][dW] [wwlklrw]        3.54
16         [dR][dL][dW][dV][dR][dW] [rlwvrw]        8.02
17  [dE][dR][dL][dK][dV][dR][dW][dW] [erlkvrww]        3.36
18         [dK][dL][dK][dL][dK][dW] [klklkw]        2.97
19  [dF][dH][dL][dE][dI][dR][dH][dW] [fhleirhw]        6.87
20    [dW][dR][dH][dK][dH][dR][dW] [wrhkhrw]        19.2
21         [dR][dW][dK][dV][dR][dW] [rwkvrw]         3.7
22  [dF][dH][dI][dE][dI][dR][dH][dF] [fhieirhf]        6.06
23    [dW][dR][dL][dE][dI][dH][dW] [wrleihw]        3.23
24  [dL][dK][dA][dR][dI][dH][dY][dH] [lkarihyh]        10.4
25         [dL][dK][dI][dR][dI][dH] [lkirih]        4.95
26    [dW][dR][dL][dR][dI][dF][dW] [wrlrifw]        2.79

Source listed as patent US20200216495A1.
